Provenance of the data: patent US20230000936A1

Hi there, I'd appreciate the recorded CHRM2 (Antagonist) percent inhibition for every entry that follows.
Molecular target: UniProt:P08172
Sequence (P08172 1-466): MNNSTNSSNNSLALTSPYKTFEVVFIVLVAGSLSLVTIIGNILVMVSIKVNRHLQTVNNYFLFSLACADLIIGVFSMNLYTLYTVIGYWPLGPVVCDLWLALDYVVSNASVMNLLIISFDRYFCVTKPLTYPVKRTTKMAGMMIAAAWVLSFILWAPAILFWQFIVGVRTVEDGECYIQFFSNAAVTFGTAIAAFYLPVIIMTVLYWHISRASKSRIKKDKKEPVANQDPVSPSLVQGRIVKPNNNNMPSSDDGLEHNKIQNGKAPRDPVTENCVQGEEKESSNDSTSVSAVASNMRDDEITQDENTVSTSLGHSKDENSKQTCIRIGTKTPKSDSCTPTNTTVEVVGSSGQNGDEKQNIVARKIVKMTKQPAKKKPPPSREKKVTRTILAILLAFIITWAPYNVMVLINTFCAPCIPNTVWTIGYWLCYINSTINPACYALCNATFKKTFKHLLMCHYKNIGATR
Experiment: GPCR reactivity screen, PathHunter β-Arrestin, antagonist assay CHRM2
Assay type: cell-based
Details: antagonist mode; agonist challenge at EC80
Value expressed in %; do not type the unit.

For this compound ( CCCCCc1cc(O)c2c(c1)OC1(C)CCC3C1C2C3(C)C (stereo not drawn) ), measured CHRM2 (Antagonist) percent inhibition is 84

For this compound ( C=C(C)[C@@H]1CCC(C)=C[C@H]1c1c(O)cc(CCC)cc1O ), measured CHRM2 (Antagonist) percent inhibition is 34

For this compound ( C=C(C)[C@@H]1CCC(C)=C[C@H]1c1c(O)cc(CCC)c(C(=O)O)c1O ), measured CHRM2 (Antagonist) percent inhibition is 2

###

Biological target: MRGPRX2 (Homo sapiens)
Sequence (Q96LB1 1-330): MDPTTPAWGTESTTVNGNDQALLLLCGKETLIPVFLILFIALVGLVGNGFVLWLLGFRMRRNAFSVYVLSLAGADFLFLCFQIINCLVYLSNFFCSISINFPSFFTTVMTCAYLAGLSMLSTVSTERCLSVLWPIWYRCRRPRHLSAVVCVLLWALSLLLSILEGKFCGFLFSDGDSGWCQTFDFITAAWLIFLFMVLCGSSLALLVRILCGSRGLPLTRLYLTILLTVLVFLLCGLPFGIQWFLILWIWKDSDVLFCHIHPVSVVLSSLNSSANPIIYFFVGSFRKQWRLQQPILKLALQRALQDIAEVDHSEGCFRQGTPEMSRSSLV
Test: IC50 antagonist activity screen, PathHunter β-Arrestin, MRGPRX2
Type: cell-based
Settings: maximum of IC50 curve
Procedure: In each of the antagonist assays, PathHunter® cell lines were removed from a freezer stock and seeded at a volume of 20 μL into white walled, 384-well microplates and incubated at 37° C. […] Microplates were read following signal generation with a PerkinElmer Envision™ (PerkinElmer Inc., Waltham, Mass.) for chemiluminescent signal detection. Reactivity was analyzed using the CBIS data analysis suite (ChemInnovation, CA) where RLU refers to the raw measured values. […]
experimental.endpoint: maximum inhibition (antagonism) MRGPRX2 (%)
Value expressed in %; do not type the unit.

For this compound ( CCCCCc1cc2c(c(O)c1C(=O)O)C=CC(C)(CCC=C(C)C)O2 (stereo not drawn) [CBCA, cannabichromenic acid] ), measured maximum inhibition (antagonism) MRGPRX2 is 35

For this compound ( CCCCCc1cc(O)c2c(c1)OC(C)(CCC=C(C)C)C=C2 (stereo not drawn) [CBC, cannabichromene] ), measured maximum inhibition (antagonism) MRGPRX2 is 91

For this compound ( CCCCCCCc1cc(O)c(C/C=C(\C)CCC=C(C)C)c(O)c1 [CBG-C7, cannabigerol heptyl] ), measured maximum inhibition (antagonism) MRGPRX2 is 99

###

Hi there, I'd appreciate the recorded CHRM2 (Agonist) percent activity for every entry that follows.
target: CHRM2 (Homo sapiens); test: GPCR reactivity screen, PathHunter β-Arrestin, agonist assay CHRM2; format: cell-based; set-up: concentration or dose not given beside the values; conditions: agonist mode; control acetylcholine
Value expressed in %; do not type the unit.

For this molecule ( CCCc1cc(O)c(C/C=C(\C)CCC=C(C)C)c(O)c1 ), measured CHRM2 (Agonist) percent activity is 0

For this molecule ( C=C(C)[C@@H]1CCC(C)=C[C@H]1c1c(O)cc(CCCCC)cc1O ), measured CHRM2 (Agonist) percent activity is 12

For this molecule ( CCCCc1cc(O)c(C/C=C(\C)CCC=C(C)C)c(O)c1C(=O)O ), measured CHRM2 (Agonist) percent activity is −4
